Data credit: ChEMBL document CHEMBL2176987

assay: Volume of distribution at steady state in Balb/c mouse at 10 mg/kg, iv; type: ADME, organism-based; set-up: dose 10 mg/kg, route intravenous; conditions: in vivo, read-out: Vdss
MEASUREMENT NAME: Vd (L/kg)

a. O=C(CCC1=CCN(Cc2ccc(Br)cc2)C1=O)NO
b. O=C(CCC1=CCN(Cc2ccc(F)cc2)C1=O)NO
stdin: Decide: a or b , by lowest recorded Vd. Lab log: write the label of the selected item as the result.
stdout: b
(b: 1.8 L/kg, a: 4.1 L/kg)

----------
test system: PC-3; assay: Cytotoxicity against human PC3 cells assessed as growth inhibition by SRB assay; format: functional, cell-based
MEASUREMENT NAME: GI50 (µM)
Use µM as the unit, but write only the number.

Look over these answered cases.
O=C(CCC1=CCN(CCc2cccc([N+](=O)[O-])c2)C1=O)NO | 8.69
CC(C)(C)c1ccc(CN2CC=C(CCC(=O)NO)C2=O)cc1 | 1.83

# context switch: different compound, same GI50
stdin: Request the reported GI50 associated with N#Cc1cccc(CN2CC=C(CCC(=O)NO)C2=O)c1
stdout: 7.92
